Tested on: HOP-62 NSCLC
Test: NCI-60 one-dose screen, 48 h (100 = growth as untreated, 0 = no growth, -100 = all killed)
Conditions: 10 µM unless noted
Experimental: Growth inhibition of the HOP-62 human Non-Small Cell Lung tumor cell line is measured as a screen for anti-cancer activity. Cells are grown in 96 well plates and exposed to the test compound for 48 hours. Compounds are tested at a single concentration, which is 10^-5 M for most compounds. The reported endpoint is percent growth (GI% or GIPRCNT), where numbers from 0 - 100% represent growth inhibition, and numbers from -100% - 0 represent cell death. […]
This is part of a sample that, as a whole, favours compounds with a hit. Of some 83,000 tested, about 20% had one in any assay.
TEST_READOUT: growth (%)
All answers are understood in %, so give the number only.

Known results for compounds:
* COc1cc(CNC(=O)CCCC/C=C/C(C)C)ccc1OCc1cn(-c2cccc([N+](=O)[O-])c2)nn1 | 97.4
* CCOC(=O)C1=C(c2ccccc2)N=C2N(c3ccccc3)N=C(C(C)=O)N2C1c1ccc(Br)cc1 (centres undefined) | 103
* CN1CCN(Cc2ccc(NC(=O)c3cc(C#Cc4cnc(N)c5ncccc45)n(C)n3)cc2C(F)(F)F)CC1 | 100
* Nc1c(C(=O)c2ccc(Cl)cc2)sc(Nc2ccccc2)c1-c1nc2ccccc2s1 | -7.72
* COC(=O)[C@H](C)NC(=O)c1ccc(NC(=O)c2[nH]c(C)c(Cl)c2Cl)c(OCCN)c1 | 106

// `COc1ccc(/C(C)=C(\c2ccc(Cl)cc2)c2ccc(OCCCN(C)C)cc2)cc1` : growth value = 101

Quick note, growth for `CO[C@H]1CC(c2ccc[nH]2)=N[C@]12O[C@@H](C)C[C@@H]1CCCCCCCc3ccc([nH]3)[C@H]12` landed at 14.8

Given item `CC/C(=C(/c1ccc(Cl)cc1)c1ccc(OCCN2CCCC2)cc1)c1ccccc1` , the value recorded as its growth is 99

# growth of `COC(=O)[C@H]1Cc2c([nH]c3ccccc23)[C@H](c2ccc3c(c2)OCO3)N1` = 107

* * *

Tested on: OVCAR-5 ovarian
Experiment: NCI-60 one-dose screen, 48 h
Conditions: 10 µM unless noted
About 83,000 compounds went through this panel and 20% of them were active in at least one assay; those are over-represented in the sample as a whole. Active and inactive are the calls of the source. How the source made its calls: active means growth percent below 10; inactive means the rest.
Lab note: assign the record to one of t for active, f for inactive

• Cn1cc(-c2csc(-c3cn(C)c4ccc(F)cc34)n2)c2cnccc21 = f
• CN1CCN(Cc2ccc(NC(=O)c3cncc(C#Cc4c(N)ncc5cc(F)ccc45)c3)cc2C(F)(F)F)CC1 = f
• CC(C)n1nc(-c2ccc3oc(N)nc3c2)c2c(N)ncnc21 = t

[Q] Any idea what this test logged for COc1cc2c(cc1-c1c(C)noc1C)ncc1nc(C3CCOCC3)n(C3CCC(OC(F)F)CC3)c12 (centres undefined) ?
[A] f

[Q] # outcome recorded in this test, key = `Cc1ccc(Nc2cc(N)nc(N)n2)cc1`
[A] f

[Q] What is the recorded call for this compound in the test? `CCN(CC)c1ccc(/C=N/NC(=O)c2ccccc2Nc2ccnc(C(F)(F)F)c2)c(O)c1`
[A] f

[Q] State the result this test recorded for `CN(C)CCOc1nc2c3cc([N+](=O)[O-])ccc3nn2c2ccccc12` .
[A] f

[Q] GET /call?item= `COC(=O)[C@@H](Cc1c[nH]c2ccccc12)NC[C@@H](O)CN1C(=O)/C(=C\c2cc(OC)c(OC)c(OC)c2)c2ccccc21` returns the recorded outcome of this test.
[A] f

[Q] Query: recorded result category for `Nc1ccc(N)c2c1C(=O)c1cccc([N+](=O)[O-])c1C2=O` in this test
[A] f

* * *

Test system: SF-295 CNS
Assay: NCI-60 one-dose screen, 48 h (100 = growth as untreated, 0 = no growth, -100 = all killed)
Conditions: 10 µM unless noted
Compounds without any hit were thinned out: in the full panel of roughly 83,000, 20% have a hit.
Label rule, in plain words: growth of 90% and up is yes (1), under 90% is no (0).

Examples from the recorded data:
* Oc1ccc(C2OCCO2)c2cccnc12 | no (0)
* CCc1ccc(Cc2cnc(NC(=O)c3cc(C)oc3C)s2)cc1 | no (0)

[Q] State whether the measured growth reaches 90%, counting equality as reaching it, for `C=C(C)[C@@H]1CC[C@]2(C#N)CC[C@]3(C)[C@H](CC[C@@H]4[C@@]5(C)CCCNC(C)(C)[C@@H]5CC[C@]43C)[C@@H]12`
[A] yes (1)

[Q] Is reported growth greater than or equal to 90% here: `COC(=O)[C@@H](Cc1c[nH]c2ccccc12)NC[C@@H](O)CN1C(=O)/C(=C\c2cc(OC)c(OC)c(OC)c2)c2ccccc21`
[A] no (0)

[Q] hey, is growth for this one >= 90%? `N#Cc1c(-c2ccc(F)cc2)cc(-c2cccc(Cl)c2)[nH]c1=O`
[A] no (0)

* * *

Test system: RPMI-8226 leukemia
Assay: NCI-60 one-dose screen, 48 h
Settings: 10 µM unless noted
This is part of a sample that, as a whole, favours compounds with a hit. Of some 83,000 tested, about 20% had one in any assay. Active and inactive are the calls of the source. Rule for the calls: active = growth percent below 10; inactive = the rest.
Select the correct class. Options are active, inactive and nothing else.

For orientation, consider the following solved cases.
* O=C(Nc1ccc2[nH]ncc2c1)c1csc(Nc2ccccc2)n1 | active
* CCOC(=O)CSc1nc2sc3c(c2c(=O)n1-c1ccccc1)CCCCC3 | inactive
* COC(=O)c1sc(-c2ccc(C)cc2)cc1O | inactive

[Q] Assay result, entry `CCNc1nc(-c2ccc(Cl)c(OC)c2)c(-c2ccnc(NCCNS(=O)(=O)c3ccc(Cl)cc3)n2)s1` — outcome?
[A] inactive

[Q] Just curious, what result did `O=C(Oc1ccccc1)c1cc(O)c(O)c(O)c1` get here?
[A] inactive

[Q] For `[2H]C([2H])([2H])Oc1c(F)cccc1/C=C/C(=O)/C=C(O)/C=C/c1cccc(F)c1OC([2H])([2H])[2H]` , what call appears in the results of this test?
[A] inactive

[Q] I would be grateful if you could indicate the recorded call for `CC/C(=C(/c1ccc(Cl)cc1)c1ccc(OCCN2CCCCCC2)cc1)c1ccccc1` .
[A] inactive

[Q] Per the records of this test, what outcome belongs to `COc1ccc(C(=O)/C=C/c2ccc(C)cc2)cc1S(N)(=O)=O` ?
[A] inactive

[Q] Which result was noted for this compound in the test: `C[C@@H]1N=C(c2ccc(Cl)cc2Cl)Nc2nc3ccccn3c2C1=O`
[A] inactive

[Q] Entry `COc1ccc(C(=O)/C=C/Nc2cc(-c3ccccc3)nn2-c2ccccc2)cc1` : call = ?
[A] inactive

[Q] Just curious, what result did `COc1cccc(/C=C2\CCc3ccccc3C2=O)c1` get here?
[A] active

* * *

System: M14 melanoma
Test: NCI-60 one-dose screen, 48 h
Conditions: 10 µM unless noted
This is part of a sample that, as a whole, favours compounds with a hit. Of some 83,000 tested, about 20% had one in any assay. The source made the active and inactive calls. The calls were made as follows: active = growth percent below 10; inactive = the rest.
API: response.call in yes = active, no = inactive

A selection of reference data follows.
• CCC(=C(c1ccc(OCCN(CC)CC)cc1)c1ccc(OCCN(CC)CC)cc1)c1ccc(Cl)cc1 = yes
• CCOC(=O)c1c(C)c2c(n1Cc1ccccc1)CSc1cc(C#N)c(=O)[nH]c1-2 = no
• Cc1ccc(-c2nnc(SCc3nc(N)nc(Nc4ccccc4F)n3)n2-c2ccccc2)cc1 = no
• C=C1/C(=C\C=C2/CCC[C@]3(C)[C@@H]([C@H](C)CCCC(C)(C)O)CC[C@@H]23)C[C@@H](OC(=O)CBr)C[C@@H]1O = no
• CN1CCN(Cc2ccc(NC(=O)c3cc(C#Cc4cnc(N)c5ncccc45)n(C)n3)cc2C(F)(F)F)CC1 = no
• CNC(=O)c1cc(Oc2cccc3nc(NC(=O)Nc4ccc(F)cc4F)ccc23)ccn1 = no

[Q] Test call for this compound, please: `CCOC(=O)c1ccc2c(c1)c1c(C)c3cnccc3c(C)c1n2C`
[A] yes

[Q] Could you kindly confirm the outcome this assay logged for `CCOC(=O)c1c(N)sc2cc(O)ccc12` ?
[A] no

[Q] Could you kindly confirm the outcome this assay logged for `CN(C)C(=S)NN=C(c1ccccn1)c1ccccn1` ?
[A] no

* * *

Below, each entry is listed with its recorded growth.
System: MALME-3M melanoma
Test: NCI-60 one-dose screen, 48 h (100 = growth as untreated, 0 = no growth, -100 = all killed)
Conditions: 10 µM unless noted
Experimental: Cells are grown in 96 well plates and exposed to the test compound for 48 hours. Compounds are tested at a single concentration, which is 10^-5 M for most compounds. The reported endpoint is percent growth (GI% or GIPRCNT), where numbers from 0 - 100% represent growth inhibition, and numbers from -100% - 0 represent cell death. For example, a value of 40 represents 60% growth inhibition. A value of 0 means no net growth occurred over the course of the experiment. […]
Compounds without any hit were thinned out: in the full panel of roughly 83,000, 20% have a hit.
Output spec: scalar in %, unitless text.

Previously resolved entries follow.
- Cc1ccc(Nc2nc(N)nc(N)c2N=O)cc1Cl: 82.2
- O=C(/C=C/c1ccc([N+](=O)[O-])cc1)c1cccc(Nc2nc(Nc3ccccc3)nc(Nc3ccccc3)n2)c1: 87.5

Record summary for `COC(=O)c1ccc(-n2cc(CCCOS(=O)(=O)c3ccc(F)cc3)nn2)cc1` : reported growth = 98.6

Entry `O=C1/C(=C/c2cccc([N+](=O)[O-])c2)COc2ccc(O)c(O)c21` — recorded growth = -53.3

Per the record, `CC(=O)/C(Br)=C/c1ccc(Br)o1` has growth of 61.4

Per the record, `O=C1C(Nc2ccc(Br)cc2)=C(I)C(=O)c2ncccc21` has growth of -6.23

The recorded growth for entry `O=C(O)/C=C\C(=O)Nc1ccc2c(c1)Cc1cc(F)ccc1-2` equals 98.9

O=C1C2C(c3cccs3)C=C(c3ccc(Cl)cc3)N2C(=S)N1c1ccccc1 (stereo not given) has a reported growth of 115

The compound listed as CCCN1C(=O)N(CCC)C2C1NC(=S)N2/N=C/C=C/c1ccccc1OC (stereo not given) has a reported growth of 40.4

Sample `O=C(CSc1nc(-c2ccccc2)cn1-c1ccc(Cl)cc1)c1ccc([N+](=O)[O-])cc1` ; growth observed: 103
